Assay method text: Survival / toxicity in the mouse
Measurement setup: in vivo, 250 mg/kg once per day for 7 days, H4 U coadministered one hour prior
Description: That is, 3 mg/kg body weight to 75 mg/kg body weight; for example, about 10 mg/kg body weight per day for 7 days or 700 mg for a 70 kg man per day for 7 days. […] 100 percent survival was obtained with a dose of 50 mg.

| Smiles | Endpoint unit | survival at 168 h |
| --- | --- | --- |
| Nc1nc(=O)n([C@H]2C[C@H](O)[C@@H](CO)O2)cc1C(F)(F)F | % | 60 |

====

Assay method text: Cytotoxicity vs HEp-2 cells (colony formation, % survival)
Measurement setup: human, hep-2 cells, Average % S, 0.003 mM, -H4 U, average

| Compound | Endpoint unit | viability at 48 h, 3 µM |
| --- | --- | --- |
| Nc1nc(=O)n([C@H]2C[C@H](O)[C@@H](CO)O2)cc1C(F)(F)F [F3 methyl dC, 5-trifluoromethyl-2'-deoxycytidine] | % | 0.95 |
